Taken from patent US20040023887A1.

# System name: Insulin Receptor (IR) (UniProt P06213 28-956, limits assumed)
# Assay info: BIAcore competition: IR pre-incubated with about 40 µM peptide, residual binding to immobilised insulin
Recorded endpoint: Result (RUs) (RU)
// note: answer is a bare numeric in RU

// query Result (RUs) value for entry LCQSWGVRIGWLTGLCP [2A9]
128

Subsequent entry: DRAFYNGLRDLVGAVYGAWD [20C11]
49

Subsequent entry: VTFTSAVFHENFYDWFVRQVS [H2]
34.6

Subsequent entry: KWLDQEWAWVQCEVYGRGCPSKK [D8 (synthetic peptide)]
41.6
